target: Q46 protein aggregates (Homo sapiens, UniProt P42858, INS38QQQQQQQQQQQQQQQQQQQQQQQQQ); construct: fused on or other part: GST at the N-terminus, cut off by thrombin before the test to start aggregation; test: Q46 Radioligand Binding Assay (RBA); details: displacement of 10 nM [3H3]MK-3328 from 5 μM aggregated Q46 protein, 60 minutes at 37° C.
Sequence (P42858 with tags, fused parts or gaps with the stated changes): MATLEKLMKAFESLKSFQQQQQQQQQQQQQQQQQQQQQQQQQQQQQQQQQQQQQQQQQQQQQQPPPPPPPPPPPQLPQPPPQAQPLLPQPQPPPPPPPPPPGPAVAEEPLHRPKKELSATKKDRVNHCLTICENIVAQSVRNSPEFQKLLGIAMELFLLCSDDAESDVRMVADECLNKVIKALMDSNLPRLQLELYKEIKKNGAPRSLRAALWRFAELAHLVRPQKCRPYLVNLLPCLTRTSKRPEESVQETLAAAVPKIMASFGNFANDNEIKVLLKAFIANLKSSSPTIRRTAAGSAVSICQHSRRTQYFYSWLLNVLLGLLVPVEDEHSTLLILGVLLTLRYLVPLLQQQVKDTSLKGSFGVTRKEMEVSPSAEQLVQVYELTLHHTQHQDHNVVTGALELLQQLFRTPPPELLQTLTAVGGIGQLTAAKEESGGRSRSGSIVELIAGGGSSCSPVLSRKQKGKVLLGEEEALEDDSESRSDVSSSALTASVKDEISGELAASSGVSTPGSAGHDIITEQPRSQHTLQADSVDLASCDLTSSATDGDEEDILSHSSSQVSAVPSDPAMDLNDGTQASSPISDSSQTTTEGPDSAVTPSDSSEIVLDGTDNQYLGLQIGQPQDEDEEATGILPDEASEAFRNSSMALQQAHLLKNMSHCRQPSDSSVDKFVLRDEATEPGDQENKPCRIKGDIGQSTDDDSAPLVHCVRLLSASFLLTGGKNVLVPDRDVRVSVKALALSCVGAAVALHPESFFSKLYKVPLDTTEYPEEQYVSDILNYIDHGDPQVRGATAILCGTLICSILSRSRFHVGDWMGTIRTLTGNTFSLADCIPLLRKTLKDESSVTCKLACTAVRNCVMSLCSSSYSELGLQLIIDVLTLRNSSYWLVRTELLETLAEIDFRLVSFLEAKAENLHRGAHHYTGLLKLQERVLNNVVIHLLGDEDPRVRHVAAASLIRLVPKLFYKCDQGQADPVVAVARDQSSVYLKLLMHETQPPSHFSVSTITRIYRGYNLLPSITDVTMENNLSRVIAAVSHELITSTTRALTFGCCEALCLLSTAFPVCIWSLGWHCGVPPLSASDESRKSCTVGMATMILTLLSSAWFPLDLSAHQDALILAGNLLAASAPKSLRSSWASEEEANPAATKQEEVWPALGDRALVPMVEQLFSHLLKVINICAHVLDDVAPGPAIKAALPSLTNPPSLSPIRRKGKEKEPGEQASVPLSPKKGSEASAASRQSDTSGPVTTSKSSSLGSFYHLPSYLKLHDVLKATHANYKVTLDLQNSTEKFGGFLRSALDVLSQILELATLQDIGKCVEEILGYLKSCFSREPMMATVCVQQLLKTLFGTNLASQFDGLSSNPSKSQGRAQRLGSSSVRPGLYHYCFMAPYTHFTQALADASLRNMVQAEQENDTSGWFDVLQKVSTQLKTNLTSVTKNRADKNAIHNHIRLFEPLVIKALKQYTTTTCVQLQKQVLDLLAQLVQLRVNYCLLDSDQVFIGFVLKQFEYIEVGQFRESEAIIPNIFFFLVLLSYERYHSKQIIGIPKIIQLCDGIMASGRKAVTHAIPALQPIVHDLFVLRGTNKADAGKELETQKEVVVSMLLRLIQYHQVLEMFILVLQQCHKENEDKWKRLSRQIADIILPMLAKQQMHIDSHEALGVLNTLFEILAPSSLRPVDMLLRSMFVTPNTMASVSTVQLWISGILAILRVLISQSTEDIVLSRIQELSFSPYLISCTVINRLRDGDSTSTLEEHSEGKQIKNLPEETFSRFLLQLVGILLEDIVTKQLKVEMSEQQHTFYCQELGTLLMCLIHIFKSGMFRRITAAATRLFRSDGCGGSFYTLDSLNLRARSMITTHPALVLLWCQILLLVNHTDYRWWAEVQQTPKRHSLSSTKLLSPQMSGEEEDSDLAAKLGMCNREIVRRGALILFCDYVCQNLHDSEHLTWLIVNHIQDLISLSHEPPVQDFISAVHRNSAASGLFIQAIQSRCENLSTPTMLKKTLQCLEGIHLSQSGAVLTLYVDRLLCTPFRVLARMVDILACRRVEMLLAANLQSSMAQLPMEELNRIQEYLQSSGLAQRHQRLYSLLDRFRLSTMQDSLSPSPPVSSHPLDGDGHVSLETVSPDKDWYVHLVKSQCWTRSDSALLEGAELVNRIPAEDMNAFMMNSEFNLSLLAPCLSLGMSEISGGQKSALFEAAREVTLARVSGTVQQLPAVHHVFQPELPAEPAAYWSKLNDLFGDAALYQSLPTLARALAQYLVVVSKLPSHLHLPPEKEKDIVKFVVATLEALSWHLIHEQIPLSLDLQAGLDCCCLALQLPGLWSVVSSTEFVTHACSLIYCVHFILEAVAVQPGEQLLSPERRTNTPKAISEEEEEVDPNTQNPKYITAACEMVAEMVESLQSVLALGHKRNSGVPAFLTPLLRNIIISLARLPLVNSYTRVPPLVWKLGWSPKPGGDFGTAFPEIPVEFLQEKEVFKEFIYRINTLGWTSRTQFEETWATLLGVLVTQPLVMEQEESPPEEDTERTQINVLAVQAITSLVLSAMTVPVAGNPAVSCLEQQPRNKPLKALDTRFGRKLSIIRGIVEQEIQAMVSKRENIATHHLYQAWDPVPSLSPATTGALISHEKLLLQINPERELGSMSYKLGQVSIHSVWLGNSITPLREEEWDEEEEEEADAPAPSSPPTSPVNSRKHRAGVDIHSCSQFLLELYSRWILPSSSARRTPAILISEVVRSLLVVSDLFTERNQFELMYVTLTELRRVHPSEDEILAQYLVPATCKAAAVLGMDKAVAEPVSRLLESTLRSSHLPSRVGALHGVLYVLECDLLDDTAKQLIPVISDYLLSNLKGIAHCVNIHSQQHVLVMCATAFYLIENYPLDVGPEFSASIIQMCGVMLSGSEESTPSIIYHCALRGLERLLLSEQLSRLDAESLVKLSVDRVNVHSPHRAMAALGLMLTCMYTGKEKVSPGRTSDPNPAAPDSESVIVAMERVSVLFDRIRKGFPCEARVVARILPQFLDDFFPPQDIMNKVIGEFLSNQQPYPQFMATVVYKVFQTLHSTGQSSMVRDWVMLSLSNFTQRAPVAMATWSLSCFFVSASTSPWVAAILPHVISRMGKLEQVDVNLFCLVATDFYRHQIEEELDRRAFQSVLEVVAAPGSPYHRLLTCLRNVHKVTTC
pIC50: −log10 of the molar value.
Reported pIC50 values are given for each entry in this list.

CNc1c(-c2cc3cc(OCc4cccnc4)ccc3o2)nc2cc(C#N)ccn12 : > 7.00
CNc1c(-c2ccc3occc3c2)nc2cc(C#N)ccn12 : 6.30 to 7.00
C#CCOc1ccc(-c2nc3cc(C#N)ccn3c2NC)cc1 : 6.30 to 7.00
CNc1c(-c2cc3cc(OC)ccc3o2)nc2ccccn12 : 6.30 to 7.00
CNc1c(-c2cc3cc(Br)ccc3o2)nc2cc(C#N)ccn12 : > 7.00

Consider now this further compound.
### Prompt Consider the compound shown here: `CNc1c(/C=C/c2ccc(OC)cc2)nc2cc(C#N)ccn12` What is its recorded pIC50?
### Response > 7.00

* * *

Reported IC50 values are given for each entry in this list.
target: Q46 protein aggregates (Homo sapiens, UniProt P42858, INS38QQQQQQQQQQQQQQQQQQQQQQQQQ); construct: fused on or other part: GST at the N-terminus, cut off by thrombin before the test to start aggregation; test: Q46 Radioligand Binding Assay (RBA); settings: displacement of 10 nM [3H3]MK-3328 from 5 μM aggregated Q46 protein, 60 minutes at 37° C.

The examples below pair each entry with its known result.
CNc1c(-c2ccc(OC)cc2)nc2cc(C#N)ccn12 : < 0.1 µM
CNc1c(-c2ccc(NCc3ccc(OC)cn3)cc2)nc2cc(C#N)ccn12 : < 0.1 µM
COc1ccc2oc(-c3cn4ccc(C#N)cc4n3)cc2c1 : < 0.1 µM
CNc1c(-c2ccc(OCC3=CSC4=NCCN34)cc2)nc2cc(C#N)ccn12 : < 0.1 µM
CNc1c(-c2cc3cc(OC)ccc3o2)nc2cc(C#C[Si](C)(C)C)ccn12 : < 0.1 µM
CNc1c(-c2cccc(COCc3cccnc3)c2)nc2cc(C#N)ccn12 : 0.1 to 0.5 µM
CNc1c(-c2ccc(Br)o2)nc2cc(C#N)ccn12 : 0.1 to 0.5 µM
COCCNc1c(-c2cc3cc(OC)ccc3o2)nc2cc(C#N)ccn12 : < 0.1 µM
CNc1c(-c2ccc(-c3cnccn3)cc2)nc2cc(C#N)ccn12 : < 0.1 µM
N#Cc1ccn2c(N)c(-c3cc4cc(OCCF)ccc4o3)nc2c1 : < 0.1 µM

### Prompt Consider the compound shown here: `CNc1c(-c2nc3cc(OC)ccc3n2C)nc2cc(C#N)ccn12` What is its recorded IC50?
### Response < 0.1 µM

### Prompt Consider the compound shown here: `CNc1c(-c2cc3ccc(OC)cc3o2)nc2cc(C#N)ccn12` What is its recorded IC50?
### Response < 0.1 µM

### Prompt Consider the compound shown here: `CNc1c(-c2cccc(-c3cnccn3)c2)nc2cc(C#N)ccn12` What is its recorded IC50?
### Response < 0.1 µM

### Prompt Consider the compound shown here: `COCc1c(-c2cc3cc(OC)ccc3o2)nc2cc(C#N)ccn12` What is its recorded IC50?
### Response < 0.1 µM

### Prompt Consider the compound shown here: `CNc1c(-c2nc3ccc(OC)cc3s2)nc2cc(C#N)ccn12` What is its recorded IC50?
### Response < 0.1 µM

### Prompt Consider the compound shown here: `CNc1c(-c2cc3cc(OC)ccc3o2)nc2cc(Cl)ccn12` What is its recorded IC50?
### Response < 0.1 µM

### Prompt Consider the compound shown here: `CNc1c(-c2nc3ccc(OC)cc3n2C)nc2cc(C#N)ccn12` What is its recorded IC50?
### Response < 0.1 µM

* * *

target: Q46 protein aggregates (Homo sapiens, UniProt P42858, INS38QQQQQQQQQQQQQQQQQQQQQQQQQ); construct: fused on or other part: GST at the N-terminus, cut off by thrombin before the test to start aggregation; experiment: Q46 Radioligand Binding Assay (RBA); conditions: displacement of 10 nM [3H3]MK-3328 from 5 μM aggregated Q46 protein, 60 minutes at 37° C.
Reported IC50 values are given for each entry in this list.

### Prompt Consider the molecule shown here: `CNc1c(-c2cccc(OCc3cccnc3)c2)nc2cc(C#N)ccn12` What is its recorded IC50?
### Response < 100 nM

### Prompt Consider the molecule shown here: `CNc1c(-c2ccc(OCc3cccnc3)cc2)nc2cc(C#N)ccn12` What is its recorded IC50?
### Response < 100 nM

### Prompt Consider the molecule shown here: `COc1ccc2oc(-c3nc4cc(C#N)ccn4c3CN(C)C)cc2c1` What is its recorded IC50?
### Response 100 to 500 nM

### Prompt Consider the molecule shown here: `CNc1c(-c2cc3cc(OC)ccc3o2)nc2cc(OC)ccn12` What is its recorded IC50?
### Response < 100 nM

### Prompt Consider the molecule shown here: `CNc1c(-c2cccc(OCc3cnc(OC)cn3)c2)nc2cc(C#N)ccn12` What is its recorded IC50?
### Response < 100 nM

### Prompt Consider the molecule shown here: `CNc1c(-c2cc3cc(OC)ccc3o2)nc2cc(C#N)ccn12` What is its recorded IC50?
### Response < 100 nM

* * *

target: Q46 protein aggregates (Homo sapiens, UniProt P42858, INS38QQQQQQQQQQQQQQQQQQQQQQQQQ); construct: fused on or other part: GST at the N-terminus, cut off by thrombin before the test to start aggregation; assay: Q46 Radioligand Binding Assay (RBA); details: displacement of 10 nM [3H3]MK-3328 from 5 μM aggregated Q46 protein, 60 minutes at 37° C.
pIC50: −log10 of the molar value.
measured metric: pIC50

### Prompt Consider the compound shown here: `CNc1c(-c2cc3cc(O)ccc3o2)nc2ccc(F)cn12` What is its recorded pIC50?
### Response 6.30 to 7.00

### Prompt Consider the compound shown here: `COc1ccc2oc(-c3nc4cc(C#N)ccn4c3N(C)C)cc2c1` What is its recorded pIC50?
### Response 6.30 to 7.00

### Prompt Consider the compound shown here: `COCCNc1c(-c2cc3cc(OC)ccc3o2)nc2ccccn12` What is its recorded pIC50?
### Response 6.30 to 7.00

### Prompt Consider the compound shown here: `COc1ccc2oc(-c3nc4cc(C#N)ccn4c3N)cc2c1` What is its recorded pIC50?
### Response > 7.00

### Prompt Consider the compound shown here: `CNc1c(-c2cc3c(o2)CCN(C(=O)OC(C)(C)C)C3)nc2cc(C#N)ccn12` What is its recorded pIC50?
### Response 6.30 to 7.00

### Prompt Consider the compound shown here: `CNc1c(-c2cnc(OCc3ccc(OC)cn3)cn2)nc2cc(C#N)ccn12` What is its recorded pIC50?
### Response > 7.00

### Prompt Consider the compound shown here: `CNc1c(-c2ccc(OCc3cnc(OC)cn3)cn2)nc2cc(C#N)ccn12` What is its recorded pIC50?
### Response > 7.00

### Prompt Consider the compound shown here: `CNc1c(-c2nc3cc(OC)ccc3o2)nc2cc(C#N)ccn12` What is its recorded pIC50?
### Response > 7.00

### Prompt Consider the compound shown here: `CNc1c(-c2cc3cc(O)ccc3o2)nc2cc(F)ccn12` What is its recorded pIC50?
### Response > 7.00

### Prompt Consider the compound shown here: `CNc1c(-c2cc3cc(OC)ccc3o2)nc2cc(F)ccn12` What is its recorded pIC50?
### Response > 7.00

### Prompt Consider the compound shown here: `C#Cc1ccn2c(NC)c(-c3cc4cc(OC)ccc4o3)nc2c1` What is its recorded pIC50?
### Response > 7.00

### Prompt Consider the compound shown here: `CNc1c(-c2cc3cc(O)ccc3o2)nc2cc(C#N)ccn12` What is its recorded pIC50?
### Response > 7.00

### Prompt Consider the compound shown here: `CNc1c(-c2cc3cc(OC)ccc3o2)nc2ccc(C#N)cn12` What is its recorded pIC50?
### Response > 7.00

### Prompt Consider the compound shown here: `CNc1c(-c2cc3cc(OCCN(C)C)ccc3o2)nc2cc(C#N)ccn12` What is its recorded pIC50?
### Response 6.30 to 7.00

### Prompt Consider the compound shown here: `CNc1c(-c2cn3c(n2)sc2cc(OC)ccc23)nc2cc(C#N)ccn12` What is its recorded pIC50?
### Response > 7.00

### Prompt Consider the compound shown here: `CNc1c(-c2nc3cc(OC)ccc3[nH]2)nc2cc(C#N)ccn12` What is its recorded pIC50?
### Response > 7.00

* * *

Reported IC50 values are given for each entry in this list.
target: Q46 protein aggregates (Homo sapiens, UniProt P42858, INS38QQQQQQQQQQQQQQQQQQQQQQQQQ); construct: fused on or other part: GST at the N-terminus, cut off by thrombin before the test to start aggregation; assay: Q46 Radioligand Binding Assay (RBA); conditions: displacement of 10 nM [3H3]MK-3328 from 5 μM aggregated Q46 protein, 60 minutes at 37° C.

CNc1c(-c2cn3c(n2)sc2ccc(OC)cc23)nc2cc(C#N)ccn12 : < 0.1 µM

### Prompt Consider the molecule shown here: `CNc1c(-c2cc3cc(OC)ccc3o2)nc2cc(CN)ccn12` What is its recorded IC50?
### Response 0.1 to 0.5 µM

### Prompt Consider the molecule shown here: `CNc1c(-c2ccc(OCc3cnc(OC)cn3)cc2)nc2cc(C#N)ccn12` What is its recorded IC50?
### Response < 0.1 µM
